System: platelet aggregation (platelet-rich plasma)
assay.notes: Inhibition of platelet aggregation (ADP-induced), Born's turbidimetric method, rabbit blood
Type: cell-based
cond: Oryctolagus cuniculus, 2 min; rabbit platelet-rich plasma; adenosine diphosphate 5 μM; 2 min after addition of test liquid; 600 nm; read-out: Concentration (ng/ml) for 50% inhibition, rabbit blood
In this section we review reported log10(IC50) values for a set of compounds.
// do not treat as linear: log10 of IC50, unit ng/mL

[
  {
    "compound": "C=CCCCC(C)[C@H](O)/C=C/[C@@H]1[C@H]2CC(CCCCC(=O)O)=C[C@H]2C[C@H]1O (stereo partly drawn)",
    "reported.measurement": 0.04
  },
  {
    "compound": "O=C(O)CCCCC1=C[C@H]2C[C@@H](O)[C@H](/C=C/[C@@H](O)C3CCCC3)[C@H]2C1",
    "reported.measurement": 0.57
  },
  {
    "compound": "CCCCC[C@H](O)/C=C/[C@H]1[C@H](O)CC(=O)[C@@H]1CCCCCCC(=O)O [Compound A, PGE1, reference compound]",
    "reported.measurement": 1.56
  },
  {
    "compound": "O=C(O)CCCCC1=C[C@H]2C[C@@H](O)[C@H](/C=C/[C@@H](O)C3CCCCC3)[C@H]2C1",
    "reported.measurement": 0.52
  },
  {
    "compound": "CCCCC[C@H](O)/C=C/[C@@H]1[C@H]2CC(CCCCC(=O)O)=C[C@H]2C[C@H]1O [Compound C, reference compound]",
    "reported.measurement": 0.77
  }
]

Let us examine a further case.
Q: Give the measured log10(IC50) of CC#CCC(C)[C@H](O)/C=C/[C@@H]1[C@H]2CC(CCCCC(=O)O)=C[C@H]2C[C@H]1O (stereo partly drawn) .
Ans: 0.56
